Where a name gives a salt, the structure may show the parent alone.
// log10 of IC50 collected for 5HT2 receptor (Rattus norvegicus, UniProt P14842)
Plainly stated, the numbers are log10 of IC50 given in nM.

Summary line: O=C(CN1CCC(CN2C(=O)[C@@H]3CCCC[C@H]3C2=O)CC1)c1ccc(F)cc1 (relative stereo) [Example 5, monohydrochloride] , 5HT2 receptor (Rattus norvegicus, UniProt P14842), reported log10 of IC50 = 1.88

The reported log10 of IC50 value, 5HT2 receptor (Rattus norvegicus, UniProt P14842), for O=C(CN1CCC(CN2C(=O)C3C4C=CC(CC4)C3C2=O)CC1)c1ccc(F)cc1 (stereo not shown) [Example 1, monohydrochloride] reads 1.68

Record for O=C(CN1CCC(CN2C(=O)c3ccccc3C2=O)CC1)c1ccccc1 [Example 10, monohydrochloride] under target or system 5HT2 receptor (Rattus norvegicus, UniProt P14842): log10 of IC50 reported as 1.11

GET /values?item= O=C(CN1CCC(Cn2c(=O)[nH]c3ccccc3c2=O)CC1)c1ccc(F)cc1 &system= 5HT2 receptor (Rattus norvegicus, UniProt P14842) returns log10 of IC50: 1.17

The recorded log10 of IC50 with 5HT2 receptor (Rattus norvegicus, UniProt P14842) for O=C(CN1CCC(CN2C(=O)[C@H]3CCCC[C@H]3C2=O)CC1)c1ccc(F)cc1 [Example 4, monohydrochloride] was 2.21

The compound O=C(CN1CCC(CN2C(=O)c3cccc4cccc(c34)C2=O)CC1)c1ccc(F)cc1 [Example 9, monohydrochloride] , when measured on 5HT2 receptor (Rattus norvegicus, UniProt P14842), yielded log10 of IC50 of 1.98

Field log10 of IC50 (system: 5HT2 receptor (Rattus norvegicus, UniProt P14842)) for entry O=C(CN1CCC(CN2C(=O)C(c3ccccc3)=C(c3ccccc3)C2=O)CC1)c1ccc(F)cc1 = 2.49

Field log10 of IC50 (system: 5HT2 receptor (Rattus norvegicus, UniProt P14842)) for entry O=C(CN1CCC(CN2C(=O)C3C4C=CC(C4)C3C2=O)CC1)c1ccc(F)cc1 (stereo not shown) [Example 6, monohydrochloride] = 2.24

Sample Cc1ccc2c(c1)C(=O)N(CC1CCN(CC(=O)c3ccc(F)cc3)CC1)C2=O [Example 8, monohydrochloride] , system: 5HT2 receptor (Rattus norvegicus, UniProt P14842). Its log10 of IC50 is 2.06

Given the compound O=C(CN1CCC(CN2C(=O)c3cccc(F)c3C2=O)CC1)c1ccc(F)cc1 [Example 11, monohydrochloride] and test system 5HT2 receptor (Rattus norvegicus, UniProt P14842), the measured log10 of IC50 is 1.52
